experiment: oral and intravenous dose pharmacokinetics in mice; type: in vivo, Balb/c mice; conditions: Balb/c, mouse, plasma, Oral: 10 mg/kg vs IV: 1 mg/kg

{"columns": ["Structure String", "bioavailability [%]"],
 "data": [
  ["Cn1cc(-c2cnc3ccc(NC(=O)Nc4ccc(F)c(Br)c4)cc3n2)cn1", 208]
]}

* * *

assay: oral and intravenous dose pharmacokinetics in mice; assay type: in vivo, Balb/c mice; details: Balb/c, mouse, plasma, IV: 1 mg/kg, read-out: MRT 0-∞
Quantity Measured: MRT inf (h)

{"columns": ["Structure String", "Test Result"],
 "data": [
  ["Cn1cc(-c2cnc3ccc(NC(=O)Nc4ccc(F)c(Br)c4)cc3n2)cn1", 1.4]
]}
